This collection of values is drawn from paper PMC12808100.

- system-tested: T1, His6-AviTag-MBP-TEV-POLE2 (human, UniProt P56282 1-527, biotin on the AviTag (BirA co-expressed, biotin in the medium))
- T1 construct: POLE2, residues 1-527; a TEV site lies between MBP and POLE2; also called His6-avi-MBP-tagged POLE2; avi-His6-MBP-POLE2; source: E. coli BL21(DE3), co-expressed with BirA, purified (HisTrap, MBPtrap, Q HP); not shown: His6, N-terminal, kept; AviTag, N-terminal, kept; MBP, N-terminal, kept
- T1 sequence (P56282 whole entry, the tested form may be a part): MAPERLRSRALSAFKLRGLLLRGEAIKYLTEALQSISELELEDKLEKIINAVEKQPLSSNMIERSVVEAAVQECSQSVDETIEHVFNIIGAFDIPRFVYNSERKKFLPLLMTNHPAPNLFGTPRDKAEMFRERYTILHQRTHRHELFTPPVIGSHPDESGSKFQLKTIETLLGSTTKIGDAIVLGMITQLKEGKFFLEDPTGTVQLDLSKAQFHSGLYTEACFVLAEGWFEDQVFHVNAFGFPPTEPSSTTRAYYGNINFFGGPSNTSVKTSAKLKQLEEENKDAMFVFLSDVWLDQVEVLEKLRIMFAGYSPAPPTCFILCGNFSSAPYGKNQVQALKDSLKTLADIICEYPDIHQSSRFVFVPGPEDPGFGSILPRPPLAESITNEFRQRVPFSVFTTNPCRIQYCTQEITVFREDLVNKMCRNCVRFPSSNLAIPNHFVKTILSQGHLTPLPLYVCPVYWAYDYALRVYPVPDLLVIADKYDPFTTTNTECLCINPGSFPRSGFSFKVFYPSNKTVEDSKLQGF
- assay-procedure: fluorescence polarisation; direct; dilution series of MBP-POLE2 added to 50 nM fluoDONSON peptide; 20 mM Hepes pH 7.5, 150 mM NaCl, 0.5 mM TCEP, 0.01% Tween 20
- details: both partners purified
pKd: −log10 of the molar value. carboxyfluorescein = carboxyfluorescein on the N-terminus (no linker)

{"binder": "carboxyfluorescein-GPAAARRNPFARLDNRPR-NH2 (DONSON, residues 71-88; also called fluorescein-labeled DONSON_71-88 peptide; fluorescent NPF motif peptide; source: synthetic peptide, HPLC purified) [fluoDONSON peptide (residues 71-88)]", "pKd": 4.80}
